- Tested on: SF-295 CNS
- method notes: NCI tumour cell line growth inhibition, 48 h; in the data active = GI50 below about 0.43 µM; inactive = the rest
Your reply should match one of these outcome classes. active, inactive

Reference set, count: 2
compound	class label
CCCc1cc2cc(-n3nc(CC)c4c3CC(C)(C)CC4=O)cc(NC3CCC(O)CC3)c2c(=O)[nH]1 (stereo not given)	inactive
Cc1cccc(/C=C/C(=O)Nc2ncc(Cc3cccc(C)c3)s2)c1	active

[Q] Which outcome was entered for the compound Oc1cccc2ccc(-c3nnc(SCc4ccc(O)c5ncccc45)n3-c3ccccc3)nc12 in this test?
[A] inactive

[Q] Which outcome was entered for the compound CCC(=C(c1ccc(OCCN(C)C)cc1)c1ccc(OCCN(C)C)cc1)c1ccc(Cl)cc1 in this test?
[A] inactive

[Q] Which outcome was entered for the compound COc1cc(OC)c(/C=C/S(=O)(=O)Cc2ccc(OC)c(NC(=O)CCC(=O)NO)c2)c(OC)c1 in this test?
[A] active
